- Tested on: DeltatarO mutant
- methodNotes: S. aureus survival, RN4220 and DeltatarO strains – OD600, teichoic acid synthesis inhibitors, primary screen (AID 463173)
- settings: S. aureus RN4220 wild type/DeltatarO growth, OD600, 18 h, active compounds read low, screened at 18.75 µg/mL (by protocol)
Hit rate of the full screen: of about 52,000 compounds, about 4,300 (8.3%) were called active. Many of the other results were omitted from the sample, so actives are more common in it than they were.
survival under 70% gets fulfilled, anything at or over 70% gets not fulfilled.

Problem: For the compound O=C(NCCc1ccc(Cl)cc1)c1ccc(CS(=O)Cc2cccc(Cl)c2)o1 (stereo not given) , is survival under 70%? fulfilled

Problem: For the compound `COC(=O)c1cc2oc(C)cc2n1CC(=O)Nc1ccc(OC)c(OC)c1` , is survival under 70%? not fulfilled

Problem: For the compound `COc1cc2c(=O)c(C(=O)c3ccc(C)c(C)c3)cn(Cc3ccccc3)c2cc1OC` , is survival under 70%? not fulfilled

Problem: For the compound `COc1ccc(C2(NC(=O)c3ccc(Cn4cc(Cl)cn4)o3)CCCCC2)cc1` , is survival under 70%? not fulfilled

Problem: For the compound `COc1ccccc1Cc1nc2ccccc2nc1SCC(=O)Nc1cc(Cl)ccc1OC` , is survival under 70%? not fulfilled

Problem: For the compound `COc1cc(NC(=O)Cn2cnc3sc(C)c(S(=O)(=O)N4CCC(C)CC4)c3c2=O)cc(OC)c1OC` , is survival under 70%? not fulfilled

Problem: For the compound `Cc1ccccc1CS(=O)(=O)Cc1ccc(C(=O)NCCc2ccc(Cl)cc2)o1` , is survival under 70%? not fulfilled

Problem: For the compound `O=C(NCCc1ccc(Cl)cc1)c1ccc(CS(=O)(=O)Cc2ccccc2F)o1` , is survival under 70%? fulfilled

Problem: For the compound `Cc1ccc(CNC(=O)c2ccc(CS(=O)(=O)Cc3ccc(F)cc3)o2)cc1` , is survival under 70%? not fulfilled

These measurements were taken from PubChem BioAssay AID463173.
